# % Iext'n (percent reduction of thioflavin-T fluorescence) per entry
System Tested: Aβ1-40 (Homo sapiens, UniProt P05067)
Sequence (P05067 672-711): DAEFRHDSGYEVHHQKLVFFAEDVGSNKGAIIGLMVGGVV
Test Name: Seeded extension assay (thioflavin T fluorescence)
Format: biochemical
Parameters: Natural β-AP (β-AP1-40) was obtained commercially from Bachem (Torrance, Calif.); purchased Bachem (Torrance, Calif.)
Stated Conditions: Table V; 25 mole % inhibitor
Square brackets hold non-standard residues; d marks the D form. Peptide text beside a SMILES is read from it. * marks the point of attachment. Cholyl = C[C@H](CCC(=O)*)[C@H]1CC[C@H]2[C@@H]3[C@H](O)C[C@@H]4C[C@H](O)CC[C@]4(C)[C@H]3C[C@H](O)[C@]12C; βAla = NCCC(=O)O
Your answer should be a number followed by the unit of measure.

INSERT INTO measurements (molecule, system_tested, recorded_result) VALUES
  ('COC(=O)[C@H](C)NC(=O)[C@H](Cc1ccccc1)NC(=O)[C@H](Cc1ccccc1)NC(=O)[C@@H](NC(=O)[C@H](CC(C)C)NC(=O)CC[C@@H](C)[C@H]1CC[C@H]2[C@@H]3[C@H](O)C[C@@H]4C[C@H](O)CC[C@]4(C)[C@H]3C[C@H](O)[C@]12C)C(C)C [PPI-401]', 'Aβ1-40 (Homo sapiens, UniProt P05067)', '0%');

Reported % Iext'n (percent reduction of thioflavin-T fluorescence) for C[C@H](NC(=O)[C@H](C)NC(=O)[C@H](C)NC(=O)[C@H](C)NC(=O)[C@H](C)NC(=O)CC[C@@H](C)[C@H]1CC[C@H]2[C@@H]3[C@H](O)C[C@@H]4C[C@H](O)CC[C@]4(C)[C@H]3C[C@H](O)[C@]12C)C(=O)O [PPI-365, Cholyl-penta-alanine, reference compound] was 0%

Reported % Iext'n (percent reduction of thioflavin-T fluorescence) for CC(C)C[C@H](NC(=O)CC[C@@H](C)[C@H]1CC[C@H]2[C@@H]3[C@H](O)C[C@@H]4C[C@H](O)CC[C@]4(C)[C@H]3C[C@H](O)[C@]12C)C(=O)N[C@H](C(=O)N[C@@H](Cc1ccccc1)C(=O)N[C@@H](Cc1ccccc1)C(=O)N[C@@H](C)C(=O)N[C@@H](CCC(=O)O)C(=O)O)C(C)C [PPI-379] (Cholyl-LVFFAE-OH) was 16%

Reported % Iext'n (percent reduction of thioflavin-T fluorescence) for C[C@H](NC(=O)[C@H](Cc1ccccc1)NC(=O)[C@H](Cc1ccccc1)NC(=O)CC[C@@H](C)[C@H]1CC[C@H]2[C@@H]3[C@H](O)C[C@@H]4C[C@H](O)CC[C@]4(C)[C@H]3C[C@H](O)[C@]12C)C(=O)O [PPI-395] was 6%

Reported % Iext'n (percent reduction of thioflavin-T fluorescence) for CC(C)C[C@H](N)C(=O)N[C@H](C(=O)N[C@@H](Cc1ccccc1)C(=O)N[C@@H](Cc1ccccc1)C(=O)N[C@@H](C)C(=O)O)C(C)C [PPI-386] was 11%

Reported % Iext'n (percent reduction of thioflavin-T fluorescence) for CC(C)C[C@H](NC(=O)[C@H](CCCCN)NC(=O)CC[C@@H](C)[C@H]1CC[C@H]2[C@@H]3[C@H](O)C[C@@H]4C[C@H](O)CC[C@]4(C)[C@H]3C[C@H](O)[C@]12C)C(=O)N[C@H](C(=O)N[C@@H](Cc1ccccc1)C(=O)N[C@@H](Cc1ccccc1)C(=O)NCCC(=O)O)C(C)C [PPI-371] (Cholyl-KLVFF[βAla]-OH) was 80%

Reported % Iext'n (percent reduction of thioflavin-T fluorescence) for CC(C)C[C@H](NC(=O)CC[C@@H](C)[C@H]1CC[C@H]2[C@@H]3[C@H](O)C[C@@H]4C[C@H](O)CC[C@]4(C)[C@H]3C[C@H](O)[C@]12C)C(=O)N[C@H](C(=O)N[C@@H](Cc1ccccc1)C(=O)O)C(C)C [PPI-393] was 0%
